tested on: ATP; test: switch fluorescence ratio, 500 uM ATP over buffer (Cy3 cluster intensity, sum of 5 cycles each) (fold (ratio)); higher = stronger signal-on switching upon ATP binding; sequences stand for … in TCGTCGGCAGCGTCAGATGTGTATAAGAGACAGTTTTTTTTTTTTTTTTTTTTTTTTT…TC; conditions: aptamer strand: ATP DNA aptamer (quencher-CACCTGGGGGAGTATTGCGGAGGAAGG + anchor), 100 nM annealed; ATP concentration: 500 uM;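 further: ATP exposure 15 min at 22 °C before imaging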
# Lookup of reported switch fluorescence ratio keyed by entry
No unit in the answer, please; the number alone is enough.

INSERT INTO results (sequence_record, assay_value) VALUES
  ('CGGTAGTATC', 0.982);

Q: # return recorded switch fluorescence ratio for input AGATCAGGAT
Result: 1.02

Q: # return recorded switch fluorescence ratio for input TGATTTGCGA
Result: 0.987

Q: # return recorded switch fluorescence ratio for input TATTTGCATC
Result: 1.01

Q: # return recorded switch fluorescence ratio for input ATCGGATGTA
Result: 1.02

Q: # return recorded switch fluorescence ratio for input ATGTAAATGA
Result: 0.986

Q: # return recorded switch fluorescence ratio for input AACGGCGGGG
Result: 1

Q: # return recorded switch fluorescence ratio for input ATTTCGTCGA
Result: 0.991

Q: # return recorded switch fluorescence ratio for input GGGGGGGGG
Result: 1

Q: # return recorded switch fluorescence ratio for input GGATTCGATT
Result: 0.987

Q: # return recorded switch fluorescence ratio for input TTCGTGGCCC
Result: 0.957

Q: # return recorded switch fluorescence ratio for input AATGGGGGGG
Result: 0.998

Q: # return recorded switch fluorescence ratio for input CGTGGGGGAC
Result: 0.997

Q: # return recorded switch fluorescence ratio for input TGTAGGGGGG
Result: 0.973

Q: # return recorded switch fluorescence ratio for input GTGTGCACTG
Result: 0.996

Q: # return recorded switch fluorescence ratio for input ATGAGCAAGA
Result: 1.49

Q: # return recorded switch fluorescence ratio for input GTTCTGAAGG
Result: 1.02

Q: # return recorded switch fluorescence ratio for input CGGGGGATT
Result: 1.03

Q: # return recorded switch fluorescence ratio for input GGCACGATGG
Result: 1

Q: # return recorded switch fluorescence ratio for input TAATAGTTTG
Result: 1.03

Q: # return recorded switch fluorescence ratio for input TGGTTAAGAT
Result: 0.999

Q: # return recorded switch fluorescence ratio for input TAGGGGTAGT
Result: 1.01

###

# Lookup of reported switch fluorescence ratio keyed by entry
system: ATP; assay: switch fluorescence ratio, 500 uM ATP over buffer (Cy3 cluster intensity, sum of 5 cycles each) (fold (ratio)); higher = stronger signal-on switching upon ATP binding; sequences stand for … in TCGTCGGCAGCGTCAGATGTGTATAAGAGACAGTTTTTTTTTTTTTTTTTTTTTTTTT…TC; details: aptamer strand: ATP DNA aptamer (quencher-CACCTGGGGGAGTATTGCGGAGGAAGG + anchor), 100 nM annealed; ATP concentration: 500 uM;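 further: ATP exposure 15 min at 22 °C before imaging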
No unit in the answer, please; the number alone is enough.

Some solved entries appear below for comparison.
INSERT INTO measurements (sequence_record, assay_value) VALUES
  ('CTGTTCATTG', 0.981),
  ('CCAGGCAAGC', 2.46),
  ('GCTGTGGTAC', 1.19),
  ('GAGCAGAGGT', 0.984),
  ('TGTCAATTGG', 0.984);

Q: # return recorded switch fluorescence ratio for input TAAATTTTCT
Result: 1.06

Q: # return recorded switch fluorescence ratio for input GCCACGTCAA
Result: 1.06

###

# Lookup of reported switch fluorescence ratio keyed by entry
tested on: ATP; assay: switch fluorescence ratio, 500 uM ATP over buffer (Cy3 cluster intensity, sum of 5 cycles each) (fold (ratio)); higher = stronger signal-on switching upon ATP binding; sequences stand for … in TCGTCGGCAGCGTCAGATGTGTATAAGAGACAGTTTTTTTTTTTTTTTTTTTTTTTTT…TC; conditions: aptamer strand: ATP DNA aptamer (quencher-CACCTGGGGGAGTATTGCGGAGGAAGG + anchor), 100 nM annealed; ATP concentration: 500 uM;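 further: ATP exposure 15 min at 22 °C before imaging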
No unit in the answer, please; the number alone is enough.

Some solved entries appear below for comparison.
INSERT INTO measurements (sequence_record, assay_value) VALUES
  ('GTTAACAGGA', 0.985),
  ('TTCCGATGGA', 1.33),
  ('TCGTATCATT', 0.976),
  ('ATTTTGCGAT', 1.01);

Lab note: next sequence to report on.
Q: # return recorded switch fluorescence ratio for input AATGACTAAT
Result: 1.01

###

system: ATP; test: switch fluorescence ratio, 500 uM ATP over buffer (Cy3 cluster intensity, sum of 5 cycles each) (fold (ratio)); higher = stronger signal-on switching upon ATP binding; sequences stand for … in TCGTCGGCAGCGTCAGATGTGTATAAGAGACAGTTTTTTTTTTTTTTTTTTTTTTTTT…TC; settings: aptamer strand: ATP DNA aptamer (quencher-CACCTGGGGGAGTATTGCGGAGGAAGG + anchor), 100 nM annealed; ATP concentration: 500 uM;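 further: ATP exposure 15 min at 22 °C before imaging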
Cut-off 1 on switch fluorescence ratio, inclusive. At or above means MET; below means NOT MET.

INSERT INTO assay_data (sequence_record, target_entity, class_assignment) VALUES
  ('CTCTGGGCAT', 'ATP', 'MET'),
  ('CTCCGTTTTT', 'ATP', 'MET'),
  ('GGGGAATCGT', 'ATP', 'NOT MET'),
  ('GAGAAACCGG', 'ATP', 'MET'),
  ('TATTTTATAT', 'ATP', 'NOT MET');

Q: Check this sequence for switch fluorescence ratio at or above 1: TTCGGGTATT
Result: MET

Q: Check this sequence for switch fluorescence ratio at or above 1: CGACAAGCTT
Result: MET

Q: Check this sequence for switch fluorescence ratio at or above 1: CGACGGGTTT
Result: MET

Q: Check this sequence for switch fluorescence ratio at or above 1: CGACTGGGGG
Result: NOT MET

Q: Check this sequence for switch fluorescence ratio at or above 1: TTTTACTTAA
Result: MET

Q: Check this sequence for switch fluorescence ratio at or above 1: GCACGGGGCG
Result: MET

###

tested on: ATP; test: switch fluorescence ratio, 500 uM ATP over buffer (Cy3 cluster intensity, sum of 5 cycles each) (fold (ratio)); higher = stronger signal-on switching upon ATP binding; sequences stand for … in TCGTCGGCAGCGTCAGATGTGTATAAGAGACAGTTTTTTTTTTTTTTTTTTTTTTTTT…TC; details: aptamer strand: ATP DNA aptamer (quencher-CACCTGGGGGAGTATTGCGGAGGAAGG + anchor), 100 nM annealed; ATP concentration: 500 uM;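 further: ATP exposure 15 min at 22 °C before imaging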
Value type: switch fluorescence ratio
No unit in the answer, please; the number alone is enough.

Some solved entries appear below for comparison.
INSERT INTO measurements (sequence_record, target_entity, assay_value) VALUES
  ('CGAGGAAGGG', 'ATP', 1.01),
  ('ACGTCGGGGG', 'ATP', 1),
  ('GATTGGGGGT', 'ATP', 0.982);

Q: # return recorded switch fluorescence ratio for input CAAGGTCCAG
Result: 1

Q: # return recorded switch fluorescence ratio for input AAAGGGCTCT
Result: 0.982

###

test system: ATP; assay: switch fluorescence ratio, 500 uM ATP over buffer (Cy3 cluster intensity, sum of 5 cycles each) (fold (ratio)); higher = stronger signal-on switching upon ATP binding; sequences stand for … in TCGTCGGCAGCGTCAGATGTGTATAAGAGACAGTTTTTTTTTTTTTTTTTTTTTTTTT…TC; conditions: aptamer strand: ATP DNA aptamer (quencher-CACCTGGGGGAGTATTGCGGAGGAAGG + anchor), 100 nM annealed; ATP concentration: 500 uM;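 further: ATP exposure 15 min at 22 °C before imaging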
Value type: switch fluorescence ratio
No unit in the answer, please; the number alone is enough.

INSERT INTO assay_data (sequence_record, target_entity, assay_value) VALUES
  ('CAGGTAGGAG', 'ATP', 0.985),
  ('TAAAAAGGGC', 'ATP', 0.992),
  ('GGGGGGTGTA', 'ATP', 1),
  ('TGCCGTTTGG', 'ATP', 1);

Q: Recall the reported switch fluorescence ratio of AGGTGAAGTT on ATP and write it down.
Result: 1.02

Q: Recall the reported switch fluorescence ratio of GTGTTGTACG on ATP and write it down.
Result: 0.999

Q: Recall the reported switch fluorescence ratio of TGAGGGAATT on ATP and write it down.
Result: 1.01

Q: Recall the reported switch fluorescence ratio of GATGATTATG on ATP and write it down.
Result: 0.993

Q: Recall the reported switch fluorescence ratio of AGCAGAAATT on ATP and write it down.
Result: 1.02

###

test system: ATP; assay: switch fluorescence ratio, 500 uM ATP over buffer (Cy3 cluster intensity, sum of 5 cycles each) (fold (ratio)); higher = stronger signal-on switching upon ATP binding; sequences stand for … in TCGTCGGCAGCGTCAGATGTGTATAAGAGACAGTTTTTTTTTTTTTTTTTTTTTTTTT…TC; conditions: aptamer strand: ATP DNA aptamer (quencher-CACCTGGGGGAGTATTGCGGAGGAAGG + anchor), 100 nM annealed; ATP concentration: 500 uM;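 further: ATP exposure 15 min at 22 °C before imaging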
Value type: switch fluorescence ratio
No unit in the answer, please; the number alone is enough.

Some solved entries appear below for comparison.
INSERT INTO results (sequence_record, assay_value) VALUES
  ('TTTATTTGTT', 1),
  ('AGAGAGACAG', 0.97),
  ('TCAGTAGGGG', 0.978),
  ('GTAGTGACGT', 0.975);

Q: # return recorded switch fluorescence ratio for input AATTGGGCGC
Result: 1.01

Q: # return recorded switch fluorescence ratio for input CATTTATGTG
Result: 0.978

Q: # return recorded switch fluorescence ratio for input TGTTGGAGAA
Result: 0.988
